Attribution: patent US20230272055A1

test system: T1, Recombinant MBP-mutCALR Type 1 fusion protein (human)
T1 construct: custom made at Cepter; also called recombinant mutCALR protein
method description: SPR, IgG captured, 1:1 fit, Exp. 1
Recorded pKd values for a group of binders are listed next.
Recall that pKd is obtained by taking minus log10 of the concentration measured in molar.

Consider the worked cases shown below.
- binder: "anti-mutCALR antibody clone 49 (antibody, human IgG1, lambda, V domains shown, human IgG1) VH: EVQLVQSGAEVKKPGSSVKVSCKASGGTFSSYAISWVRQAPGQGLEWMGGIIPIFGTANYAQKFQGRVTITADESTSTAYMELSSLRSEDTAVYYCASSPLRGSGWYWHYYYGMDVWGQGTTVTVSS VL: SYELTQPPSVSVAPGKTARITCGGNNIRAKHVHWYQQKPGQSPVLVIYQDSKRPSGIPERFSGSNSGSTATLTISRVEAGDEADYYCQVWDSSTVVFGGGTKLTVLG"
  reported: 8.44
- binder: "anti-mutCALR antibody clone 21 (antibody, human IgG1, lambda, V domains shown, human IgG1) VH: EVQLVQSGAEVKKPGASVKVSCEVSGYTLTELSMQWVRQAPGKGLEWMGGFDPDDGETMYAEKFQGRLTVTEDTSTDTVYMELRSLTSEDTALYFCATSPGYDFFDYWGQGTLVTVSS VL: SYVLTQPPSVSVAPGQTARVSCGGNNIGSKSVNWYRQKPGQAPVLVIYDDSDRPSGIPERFSGSNSGNTATLTISRVEAGDEADYYCQVWDSSNDLLIFGGGTKLTVLG"
  reported: 8.59

Attention now turns to another entry.
# input Need pKd of anti-mutCALR antibody clone 5 (antibody, human IgG1, lambda, V domains shown, human IgG1) VH: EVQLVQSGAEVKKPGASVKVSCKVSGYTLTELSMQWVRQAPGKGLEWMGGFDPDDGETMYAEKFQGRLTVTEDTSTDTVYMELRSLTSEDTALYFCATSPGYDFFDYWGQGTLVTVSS VL: SYVLTQPPSVSVAPGQTASITCVGTNFGSKNVHWYQQRPGQAPVLVVYDDSDRPSGIPERFSGSNSGNTATLTISRVEAGDEADYYCQVWDSSSDHLIFGGGTKLTVLG , thanks.
# output 8.36
